Each recorded value in this set is attributed to patent US10253052B2.

- Assay name: In vivo biodistribution in mice
- Design: species or system normal CD-1 male mice
- Condition set: iv, 60 min (1 hr) post injection
Each record here notes measured Biodistribution: Muscle.
Metric: Biodistribution: Muscle (% dose/g)

• O=C([O-])CN1CCN(CC(=O)[O-])CCN(CC(=O)NCCNC(=O)CCc2ccc(O)c(CN(CCN(CC(=O)O)Cc3cc(CCC(=O)NC(P(=O)(O)O)P(=O)(O)O)ccc3O)CC(=O)O)c2)CCN(CC(=O)[O-])CC1.[177Lu+3] [[^177Lu]1h] = 0.06
• O=C([O-])CN(CCN(CC(=O)[O-])Cc1cc(CCC(=O)NC(P(=O)(O)O)P(=O)(O)O)ccc1[O-])Cc1cc(CCC(=O)NC2C(O)OC(CO)C(O)C2O)ccc1[O-].[68Ga+3] (centres unmarked) [[^68Ga]1b] = 0.13
• O=C([O-])CN(CCN(CC(=O)[O-])Cc1cc(CCC(=O)N[C@@H](CC(=O)O)C(=O)O)ccc1[O-])Cc1cc(CCC(=O)NC(P(=O)(O)O)P(=O)(O)O)ccc1[O-].[68Ga+3] [[^68Ga]1e] = 0.06
• O=C([O-])CN(CCN(CC(=O)[O-])Cc1cc(CCC(=O)NC(P(=O)(O)O)P(=O)(O)O)ccc1[O-])Cc1cc(CCC(=O)NCCNC(=O)CN2CCN(CC(=O)O)CCN(CC(=O)O)CCN(CC(=O)O)CC2)ccc1[O-].[68Ga+3] [[^68Ga]1h] = 0.05
• O=C([O-])CN(CCN(CC(=O)[O-])Cc1cc(CCC(=O)N[C@@H](CCC(=O)O)C(=O)O)ccc1[O-])Cc1cc(CCC(=O)NC(P(=O)(O)O)P(=O)(O)O)ccc1[O-].[68Ga+3] [[^68Ga]1f] = 0.06

---

- Assay name: In vivo biodistribution in mice
- Design: species or system normal CD-1 male mice
- Condition set: iv, 120 min post injection
Each record here notes measured Biodistribution: Kidney.
Metric: Biodistribution: Kidney (% dose/g)

- [18F-].[Na+] [[^18F]NaF, reference compound]: 0.57
- O=C([O-])CN(CCN(CC(=O)[O-])Cc1cc(CCC(=O)NC(P(=O)(O)O)P(=O)(O)O)ccc1[O-])Cc1cc(CCC(=O)NCCCCCC(=O)NCCCC[C@H](NC(=O)N[C@@H](CCC(=O)O)C(=O)O)C(=O)O)ccc1[O-].[68Ga+3] [[^68Ga]1g]: 70.3
- C[C@H](NC(=O)CCc1ccc([O-])c(CN(CCN(CC(=O)[O-])Cc2cc(CCC(=O)NC(P(=O)(O)O)P(=O)(O)O)ccc2[O-])CC(=O)[O-])c1)C(=O)O.[68Ga+3] [[^68Ga]1d]: 0.91

---

- Assay name: In vivo biodistribution in mice
- Design: species or system normal CD-1 male mice
- Condition set: iv, 2 min post injection
Each record here notes measured Biodistribution: Pancreas.
Metric: Biodistribution: Pancreas (% dose/g)

• O=C([O-])CN(CCN(CC(=O)[O-])Cc1cc(CCC(=O)N[C@@H](CCC(=O)O)C(=O)O)ccc1[O-])Cc1cc(CCC(=O)NC(P(=O)(O)O)P(=O)(O)O)ccc1[O-].[68Ga+3] [[^68Ga]1f] = 1.96
• O=C([O-])CN(CCN(CC(=O)[O-])Cc1cc(CCC(=O)NC(P(=O)(O)O)P(=O)(O)O)ccc1[O-])Cc1cc(CCC(=O)O)ccc1[O-].[68Ga+3] [[^68Ga]1a] = 1.58
• O=C([O-])CN(CCN(CC(=O)[O-])Cc1cc(CCC(=O)NC(P(=O)(O)O)P(=O)(O)O)ccc1[O-])Cc1cc(CCC(=O)NCC(=O)O)ccc1[O-].[68Ga+3] [[^68Ga]1c] = 1.99
• [18F-].[Na+] [[^18F]NaF, reference compound] = 1.76
